Recorded In vitro lipogenesis, rate of [C14]-glucose incorporation into [C14]-lipid by entry
- System: adipose tissues from male Zucker fatty (fa/fa) rats
- assay method text: In vitro inhibition of lipogenesis in isolated adipose tissue
- Format: cell-based, rat
- particulars: peptide 0.3 μM, insulin 0.1 mU/ml, KRB buffer
Bridges are numbered along the chain shown (N, C = ends). Where no end group is shown, it is not given here.
Just the number please, in nmol/g tissue/hr, no unit attached.

Please review the entries below; each comes with its answer.
{"substance": "9403 (LRKVQCRSVEGSCGF; disulfide 6-13; listed as Homo sapiens) [Compound 9403]", "measured number": 167}
{"substance": "9608 (LRAVQCRSVEGSCGF; disulfide 6-13; listed as Homo sapiens) [Compound 9608]", "measured number": 173}
{"substance": "9611 (LRIVQARSVEGSCGF; listed as Homo sapiens) [Compound 9611]", "measured number": 224}

Could you now look at the following substance, please?
Data point: 9602 (LRIVQCRSVEGSCAF; disulfide 6-13; listed as Homo sapiens) [Compound 9602] ; In vitro lipogenesis, rate of [C14]-glucose incorporation into [C14]-lipid = 176
